- Target desc: T1, human GPC3 on cells (human, UniProt P51654 25-554)
- T1 construct: whole, on cells; over-expressed on CHOK1 cells or endogenous on HEPG2, Hep3B and Huh-7 hepatocellular carcinoma cells; the cell line is named under assay; also called GPC3-CHOK1 cells; human GPC3 over-expressed CHOK1 cells
- Assay remarks: FACS, Huh-7 cells
Property label: EC50 (µg/mL)
Return type: number; implicit unit µg/mL.

Prompt line: Fill blank: measured EC50 of the binder 52H5D3B8-6#-VH3+VL1 (antibody, V domains shown, humanized) VH: QVQLVQSGAEVKKPGASVKVSCKALGYTFTDYEMHWVKQAPGQGLEWIGAIHPGSGGTAYNQKFKGRVTLTADTSTSTVYMELSSLRSEDTAVYYCTRYYSYAYWGQGTLVTVSS VL: DIVMTQTPLSLSVTPGQPASISCRSSQSLVHSNGNTYLQWYLQKPGQSPQLLIYKVSNRFSGVPDRFSGSGSGTDFTLKISRVEAEDVGVYYCFQSIHVPYTFGGGTKLEIK is ____.
Response line: 0.0413

Prompt line: Same lookup for 52H5D3B8-6#-VH2+VL2 (antibody, V domains shown, humanized) VH: QVQLVQSGAEVKKPGASVKVSCKASGYTFTDYEMHWVRQAPGQGLEWIGAIHPGSGGTAYNQKFKGRVTMTADTSTSTVYMELSSLRSEDTAVYYCTRYYSYAYWGQGTLVTVSS VL: DIVMTQTPLSLSVTPGQPASISCRSSQSLVHSNGNTYLQWYLQKPGQSPQLLIYKVSNRFSGVPDRFSGSGSGTDFTLKISRVEAEDVGVYFCFQSIHVPYTFGGGTKLEIK , please.
Response line: 0.0434

Prompt line: Input 52H5D3B8-6#-VH1+VL3 (antibody, V domains shown, humanized) VH: QVQLVQSGAEVKKPGASVKVSCKASGYTFTDYEMHWVRQAPGQGLEWMGAIHPGSGGTAYNQKFKGRVTMTRDTSTSTVYMELSSLRSEDTAVYYCARYYSYAYWGQGTLVTVSS VL: DIVMTQTPLSLSVTPGQPASISCRSSQSLVHSNGNTYLQWYLQKPGQSPKLLIYKVSNRFSGVPDRFSGSGSGTDFTLKISRVEAEDVGVYYCFQSIHVPYTFGGGTKLEIK
Response line: 0.0265

Prompt line: And the next one, 52H5D3B8-6#-VH1+VL2 (antibody, V domains shown, humanized) VH: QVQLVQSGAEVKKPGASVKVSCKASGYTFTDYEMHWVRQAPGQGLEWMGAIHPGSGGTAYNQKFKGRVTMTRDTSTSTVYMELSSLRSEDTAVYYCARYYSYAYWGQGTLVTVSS VL: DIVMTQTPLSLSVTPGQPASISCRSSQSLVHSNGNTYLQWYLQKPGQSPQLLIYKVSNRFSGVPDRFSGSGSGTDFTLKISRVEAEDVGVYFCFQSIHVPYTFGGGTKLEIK ?
Response line: 0.0326
